- Organism: Oryctolagus cuniculus
- assay_explanation: Inhibition of chymotrypsin-like activity of rabbit reticulocyte 20S proteasome at 100 uM
Residues, ends and D or L forms follow the SMILES beside them. *: point of attachment. Boc = CC(C)(C)OC(=O)*
endpoint_label: inhibition

Below, 2 compounds whose answers are already recorded.
>>> result_value("CCOC(=O)[C@H](Cc1c[nH]c2c(Br)cccc12)NC(=O)[C@H](CC(C)C)NC(=O)[C@H](Cc1ccc(OCc2ccccc2)c(I)c1)NC(=O)OC(C)(C)C")
"< 20%"
>>> result_value("C[C@H](NC(=O)[C@H](Cc1ccc(O)cc1)NC(=O)OC(C)(C)C)C(=O)N[C@@H](Cc1c[nH]c2ccccc12)C(=O)O (Boc-Tyr-Ala-Trp-OH)")
"< 20%"

We now examine a further compound.
Consider CC(C)C[C@H](NC(=O)[C@H](Cc1ccc(OCc2ccccc2)cc1)NC(=O)OC(C)(C)C)C(=O)N[C@@H](Cc1c[nH]c2ccccc12)C(=O)Nc1ccc(O)cc1 . Its measured inhibition is < 20%
